Tested on: MV4-11 human acute myeloid leukemia cell with FLT3-ITD mutation
Assay: MV4-11 cell proliferation assay (CellTiter 96)
Type: cell-based
Conditions: Homo sapiens, MV4-11, 72 h, MV4-11 cells, 72 hours treatment, CellTiter96; read-out: anti-proliferation activity MV4-11 (FLT3-ITD), IC50 ranking
Description: Inhibitions of cell growths by compounds were measured using CellTiter™-96 assay. […] MV4-11, Molm-14, THP-1, A375, and HCC827 cells were seeded into 96-well plates at 6500, 25000, 5000, 2000 and 8000 cells/well, respectively, and incubated at 37° C., 5% CO2 overnight. […] Cell viability was determined by measuring absorbance at 490 nm using EMax® microplate reader (Molecular Devices, San Jose, CA, USA).
pIC50: −log10 of the molar value.
reported endpoint: pIC50

Sample Nc1ccc(-c2cc3c(s2)Cc2c(-c4ccc5[nH]ncc5c4)n[nH]c2-3)cn1 ; pIC50 observed: > 7.52

Sample Cn1ncc2ccc(-c3n[nH]c4c3Cc3sc(-c5ccc(CN6CCSCC6)cc5)cc3-4)cc21 ; pIC50 observed: 7.00 to 7.52

Sample Cn1ncc2ccc(-c3n[nH]c4c3Cc3sc(-c5ccc(CN6CCOCC6)cc5)cc3-4)cc21 ; pIC50 observed: > 7.52

Origin of values: patent US12448394B2
